- measurementTarget: RSV postfusion F (postF), F ΔFP (Respiratory Syncytial Virus, UniProt P03420 26-513)
- testDetails: BLI, IgG on anti-human IgG sensor, 100 nM antigen, 1:1 fit
Reported pKd by item:
Note on units: pKd is unitless, being -log10 of a concentration expressed in mol/L.

ADI-41458 (antibody, V domains shown) VH: EVQLLESGSGLVKPSQTLSLTCAVSGDSLNSALYSWSWIRQPPGKGLEWIGYIYYSGSTYYNSSLKSRVTISIDRSKNQFSLNLNSVTAADTAVYYCASLQTGYSSGWFFDFWGPGTLVTVSS VL: EIVLTQSPGTLSLSPGERATLSCRASQSVSRTYLTWYQQKPGQAPRLLIYGASNRATGIPDRFSGSGSGTDFTLTISRLEPEDFAVYYCQQYGSTPLFGQGTKVEIK = 9.26
ADI-41484 (antibody, V domains shown) VH: EVQLVESGPGLVKPSEALSLTCTVSGASISSYYWTWIRQSPRKGLEWIGYIYHTGRTNYNPSLKRRVTMSVDWSKNQFSLTLSSVTAADTAVYYCARLKVVPAALESAILEHHFGLDVWGQGTTVTVSS VL: DIVMTQTPSTLSASIGDRVTLTCRASQSINRWLAWYQQKPGKAPKLLIYKASTLESGVPSRFSGSGSGTEFTLTISGLQPDDFATYYCQQYNNFPYTFGPGTKVDIK = 9.11

Kindly consider the entry below.
# query: pKd of entry ADI-41463 (antibody, V domains shown, also called Ab 747; Antibody Number 747) VH: QVQLVQSGAEVKKPGASVKVSCTASGYSFTDYDISWVRQAPGQGLEWMGWISAYNGNTNYAQKFQDRVTMNTDTSTNTAYMELRGLRSDDTAVYYCARNCYYGSGTCYIEDYYFDYWGQGTLVTVSS VL: DIQMTQSPSSLSASVGDRVTITCRASQDIKNDLGWYQQKPGKPPKRLIYGASRSQSGVPSRFSGSGSGTDFTLTIYSLQPEDFATYYCLQHSDYPFTFGQGTRLEIK
9.31

The values you see were collected from patent US20260258115A1.
